- PROTOCOL_TEXT: Figure 6
Where a SMILES comes first, the peptide text is derived from it. Bridges are numbered along the chain shown (N, C = ends). [ ]: non-standard residue; d: D form. R8 = C=CCCCCCC[C@@](C)(N)C(=O)O; S5 = C=CCCC[C@](C)(N)C(=O)O; Nle = CCCC[C@H](N)C(=O)O; Aib = CC(C)(N)C(=O)O
Let's look at some compounds and their measured T1/2.
Numbers only here, please. The scale is min.

# count of solved cases: 4
CCCC[C@H](NC(C)=O)C(=O)N[C@@H](CC(=O)O)C(=O)N[C@H](C(=O)N[C@@H](CC(N)=O)C(=O)NC(C)(C)C(=O)N[C@H](C(=O)N[C@@H](CC(C)C)C(=O)N[C@@]1(C)CCCC=CCCC[C@@](C)(C(=O)N[C@@H](C)C(=O)N[C@@H](C)C(=O)N[C@@H](CCC(N)=O)C(N)=O)NC(=O)[C@H](CCCCN)NC(=O)[C@H](CC(C)C)NC(=O)[C@H](Cc2ccccc2)NC1=O)[C@@H](C)O)C(C)C [SP-9, Ac-NleDVNAibTL$FLK$AAQ-NH2] (Ac-[Nle]DVN[Aib]TL[S5]FLK[S5]AAQ-NH2; staple 8-12) ... 95.4
CCCC[C@H](NC(C)=O)C(=O)N[C@@H](CC(=O)O)C(=O)N[C@H](C(=O)N[C@@H](CC(N)=O)C(=O)NC(C)(C)C(=O)N[C@H](C(=O)N[C@@H](CC(C)C)C(=O)N[C@@H](CC(C)C)C(=O)N[C@@H](Cc1ccccc1)C(=O)N[C@@]1(C)CCCC=CCCC[C@@](C)(C(=O)N[C@@H](CCCNC(=N)N)C(N)=O)NC(=O)[C@H](C)NC(=O)[C@H](C(C)C)NC(=O)[C@H](CCCCN)NC1=O)[C@@H](C)O)C(C)C [SP-6, Ac-NleDVNAibTLLF$KVA$R-NH2] (Ac-[Nle]DVN[Aib]TLLF[S5]KVA[S5]R-NH2; staple 10-14) ... 77.4
CCCC[C@H](NC(C)=O)C(=O)N[C@@H](CC(=O)O)C(=O)N[C@H](C(=O)N[C@@H](CC(N)=O)C(=O)N1CCC[C@H]1C(=O)N[C@H](C(=O)N[C@@H](CC(C)C)C(=O)N[C@@H](CC(C)C)C(=O)N[C@@H](Cc1ccccc1)C(=O)N[C@@H](CC(C)C)C(=O)N[C@@H](CCCCN)C(=O)N[C@H](C(=O)N1CCC[C@H]1C(=O)N[C@@H](C)C(=O)N[C@@H](CCC(N)=O)C(N)=O)C(C)C)[C@@H](C)O)C(C)C ... 9.6
CCCC[C@H](NC(C)=O)C(=O)N[C@@H](CC(=O)O)C(=O)N[C@H](C(=O)N[C@@H](CC(N)=O)C(=O)N1CCC[C@H]1C(=O)N[C@H](C(=O)N[C@@H](CC(C)C)C(=O)N[C@@H](CC(C)C)C(=O)N[C@@H](Cc1ccccc1)C(=O)N[C@@]1(C)CCCC=CCCC[C@@](C)(C(=O)N[C@@H](CCCNC(=N)N)C(N)=O)NC(=O)[C@H](C)NC(=O)[C@H](C(C)C)NC(=O)[C@H](CCCCN)NC1=O)[C@@H](C)O)C(C)C [SP-11, Ac-NleDVNPTLLF$KVA$R-NH2] (Ac-[Nle]DVNPTLLF[S5]KVA[S5]R-NH2; staple 10-14) ... 32.4

-- ask Which T1/2 is listed for CCCC[C@H](NC(C)=O)C(=O)N[C@@H](CC(=O)O)C(=O)N[C@H](C(=O)N[C@@H](CC(N)=O)C(=O)NC(C)(C)C(=O)N[C@H](C(=O)N[C@]1(C)CCCCCCC=CCCC[C@@](C)(C(=O)N[C@@H](CCCNC(=N)N)C(N)=O)NC(=O)[C@H](C)NC(=O)[C@H](C(C)C)NC(=O)[C@H](CCCCN)NC(=O)[C@H](CC(C)C)NC(=O)[C@H](Cc2ccccc2)NC(=O)[C@H](CC(C)C)NC1=O)[C@@H](C)O)C(C)C [SP-15, Ac-NlcDVNAibT$r8LFLKVA$R-NH2] (Ac-[Nle]DVN[Aib]T[R8]LFLKVA[S5]R-NH2; staple 7-14) ?
-- reply 89.4

-- ask Try this compound next: CCCC[C@H](NC(C)=O)C(=O)N[C@@H](CC(=O)O)C(=O)N[C@H](C(=O)N[C@@H](CC(N)=O)C(=O)NC(C)(C)C(=O)N[C@H](C(=O)N[C@@H](CC(C)C)C(=O)N[C@@H](CC(C)C)C(=O)N[C@@H](Cc1ccccc1)C(=O)N[C@@H](CC(C)C)C(=O)N[C@@H](CCCCN)C(=O)N[C@H](C(=O)NC(C)(C)C(=O)N[C@@H](C)C(=O)N[C@@H](CCC(N)=O)C(N)=O)C(C)C)[C@@H](C)O)C(C)C [SP-2, Ac-NleDVNAibTLLFLKVAibAQ-NH2] (Ac-[Nle]DVN[Aib]TLLFLKV[Aib]AQ-NH2)
-- reply 19.8

-- ask Try this compound next: CCCC[C@H](NC(C)=O)C(=O)N[C@@H](CC(=O)O)C(=O)N[C@H](C(=O)N[C@@H](CC(N)=O)C(=O)N1CCC[C@H]1C(=O)N[C@H](C(=O)N[C@@H](CC(C)C)C(=O)N[C@@]1(C)CCCC=CCCC[C@@](C)(C(=O)N[C@@H](C)C(=O)N[C@@H](C)C(=O)N[C@@H](CCC(N)=O)C(N)=O)NC(=O)[C@H](CCCCN)NC(=O)[C@H](CC(C)C)NC(=O)[C@H](Cc2ccccc2)NC1=O)[C@@H](C)O)C(C)C [SP-10, Ac-NleDVNPTL$FLK$AAQ-NH2] (Ac-[Nle]DVNPTL[S5]FLK[S5]AAQ-NH2; staple 8-12)
-- reply 33.6

----------
- PROTOCOL_TEXT: Figure 6
Where a SMILES comes first, the peptide text is derived from it. Bridges are numbered along the chain shown (N, C = ends). [ ]: non-standard residue; d: D form. S5 = C=CCCC[C@](C)(N)C(=O)O; Nle = CCCC[C@H](N)C(=O)O; Aib = CC(C)(N)C(=O)O
MEASURED_PARAMETER: Cl (mL/min/kg)
Numbers only here, please. The scale is mL/min/kg.

CCCC[C@H](NC(C)=O)C(=O)N[C@@H](CC(=O)O)C(=O)N[C@H](C(=O)N[C@@H](CC(N)=O)C(=O)N1CCC[C@H]1C(=O)N[C@H](C(=O)N[C@@H](CC(C)C)C(=O)N[C@@H](CC(C)C)C(=O)N[C@@H](Cc1ccccc1)C(=O)N[C@@]1(C)CCCC=CCCC[C@@](C)(C(=O)N[C@@H](CCCNC(=N)N)C(N)=O)NC(=O)[C@H](C)NC(=O)[C@H](C(C)C)NC(=O)[C@H](CCCCN)NC1=O)[C@@H](C)O)C(C)C [SP-11, Ac-NleDVNPTLLF$KVA$R-NH2] (Ac-[Nle]DVNPTLLF[S5]KVA[S5]R-NH2; staple 10-14) ... 5.67
CCCC[C@H](NC(C)=O)C(=O)N[C@@H](CC(=O)O)C(=O)N[C@H](C(=O)N[C@@H](CC(N)=O)C(=O)N1CCC[C@H]1C(=O)N[C@H](C(=O)N[C@@H](CC(C)C)C(=O)N[C@@]1(C)CCCC=CCCC[C@@](C)(C(=O)N[C@@H](C)C(=O)N[C@@H](C)C(=O)N[C@@H](CCC(N)=O)C(N)=O)NC(=O)[C@H](CCCCN)NC(=O)[C@H](CC(C)C)NC(=O)[C@H](Cc2ccccc2)NC1=O)[C@@H](C)O)C(C)C [SP-10, Ac-NleDVNPTL$FLK$AAQ-NH2] (Ac-[Nle]DVNPTL[S5]FLK[S5]AAQ-NH2; staple 8-12) ... 8.85
CCCC[C@H](NC(C)=O)C(=O)N[C@@H](CC(=O)O)C(=O)N[C@H](C(=O)N[C@@H](CC(N)=O)C(=O)N1CCC[C@H]1C(=O)N[C@H](C(=O)N[C@@H](CC(C)C)C(=O)N[C@@H](CC(C)C)C(=O)N[C@@H](Cc1ccccc1)C(=O)N[C@@H](CC(C)C)C(=O)N[C@@H](CCCCN)C(=O)N[C@H](C(=O)N1CCC[C@H]1C(=O)N[C@@H](C)C(=O)N[C@@H](CCC(N)=O)C(N)=O)C(C)C)[C@@H](C)O)C(C)C ... 31.22

-- ask Which Cl is listed for CCCC[C@H](NC(C)=O)C(=O)N[C@@H](CC(=O)O)C(=O)N[C@H](C(=O)N[C@@H](CC(N)=O)C(=O)NC(C)(C)C(=O)N[C@H](C(=O)N[C@@H](CC(C)C)C(=O)N[C@@H](CC(C)C)C(=O)N[C@@H](Cc1ccccc1)C(=O)N[C@@H](CC(C)C)C(=O)N[C@@H](CCCCN)C(=O)N[C@H](C(=O)NC(C)(C)C(=O)N[C@@H](C)C(=O)N[C@@H](CCC(N)=O)C(N)=O)C(C)C)[C@@H](C)O)C(C)C [SP-2, Ac-NleDVNAibTLLFLKVAibAQ-NH2] (Ac-[Nle]DVN[Aib]TLLFLKV[Aib]AQ-NH2) ?
-- reply 15

The reported numbers originate from patent US10022422B2.
